Test Target: ZAP-70 (Homo sapiens)
Sequence (P43403 1-619): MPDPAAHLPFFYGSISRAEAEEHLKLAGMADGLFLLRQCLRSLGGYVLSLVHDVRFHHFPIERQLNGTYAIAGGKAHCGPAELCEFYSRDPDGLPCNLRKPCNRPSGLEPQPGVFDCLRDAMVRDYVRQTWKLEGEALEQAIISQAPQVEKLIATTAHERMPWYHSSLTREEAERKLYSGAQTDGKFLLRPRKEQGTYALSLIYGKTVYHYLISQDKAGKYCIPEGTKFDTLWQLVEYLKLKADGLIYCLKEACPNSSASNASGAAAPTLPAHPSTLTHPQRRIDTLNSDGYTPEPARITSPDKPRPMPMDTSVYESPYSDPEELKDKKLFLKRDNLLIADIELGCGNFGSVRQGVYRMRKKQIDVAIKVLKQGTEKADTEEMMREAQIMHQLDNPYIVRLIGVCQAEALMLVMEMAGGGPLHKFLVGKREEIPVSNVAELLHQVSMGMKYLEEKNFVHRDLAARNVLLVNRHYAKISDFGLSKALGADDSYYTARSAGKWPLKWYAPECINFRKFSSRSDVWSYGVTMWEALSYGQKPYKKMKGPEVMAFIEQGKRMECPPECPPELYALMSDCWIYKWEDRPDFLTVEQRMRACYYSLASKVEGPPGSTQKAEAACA
Protocol: DELFIA assay (ZAP-70 kinase, phosphorylation of biotinylated poly(glu,tyr))
Format: biochemical
Run Conditions: ZAP-70 DELFIA, class symbols; read-out: Activity (IC50 in vitro)
Overview of recorded IC50 for various compounds

Compound	IC50
N#Cc1ccc(-c2ccc3nc(N4Cc5ccccc5C[C@H]4CO)cc(C(=O)N4CCC[C@H]4CN4CCCC4)c3c2)cc1	> 10 µM
CN(Cc1ccccc1)c1cc(C(=O)N2CCC[C@H]2CN2CCCC2)cc(N(C)c2ccccc2)n1	1 to 10 µM
O=C(c1cc(OCc2ccccc2)nc2ccc(-c3ccc4c(c3)OCO4)cc12)N1CCC[C@H]1CN1CCCC1	< 1 µM
N#Cc1ccc(-c2ccc3nc(NCCc4ccc(F)cc4)cc(C(=O)N4CCC[C@H]4CN4CCCC4)c3c2)cc1	> 10 µM
N#Cc1cccc(-c2ccc3nc(-c4cccc(C#N)c4)cc(C(=O)N4CCC[C@H]4CN4CCCC4)c3c2)c1	1 to 10 µM
CN(Cc1ccccc1Cl)c1cc(C(=O)N2CCC[C@H]2CN2CCCC2)c2cc(-c3ccc(C#N)cc3)ccc2n1	> 10 µM

Fill in: IC50 of N#Cc1ccc(-c2ccc3nc(NCc4ccc(F)c(F)c4)cc(C(=O)N4CCC[C@H]4CN4CCCC4)c3c2)cc1 is ___
> 10 µM

Fill in: IC50 of O=C(c1cc(N2CCCC2)nc2ccc(-c3ccc4c(c3)OCO4)cc12)N1CCC[C@H]1CN1CCCC1 is ___
1 to 10 µM

Fill in: IC50 of O=C(c1cc(NCC(O)c2ccccc2)nc2ccc(-c3ccc4c(c3)OCO4)cc12)N1CCC[C@H]1CN1CCCC1 (stereo partly drawn) is ___
< 1 µM

Fill in: IC50 of COc1ccc(CCNc2cc(C(=O)N3CCC[C@H]3CN3CCCC3)c3cc(-c4ccc(C#N)cc4)ccc3n2)cc1 is ___
> 10 µM

Fill in: IC50 of O=C(c1cc(NCc2ccc(F)cc2F)nc2ccc(-c3ccc4c(c3)OCO4)cc12)N1CCC[C@H]1CN1CCCC1 is ___
< 1 µM

Fill in: IC50 of CN(CCc1ccccc1)c1cc(C(=O)N2CCC[C@H]2CN2CCCC2)cc(N(C)c2ccccc2)n1 is ___
> 10 µM
